Source: patent US7919454B2

- ASSAY TARGET: PEPT1 (Homo sapiens)
- Construct: The complete open reading frame was cloned into a Xenopus oocyte expression plasmid; expressed in transfected cells; host or cells: Xenopus oocytes injected with cRNA
- Sequence (P46059 whole entry): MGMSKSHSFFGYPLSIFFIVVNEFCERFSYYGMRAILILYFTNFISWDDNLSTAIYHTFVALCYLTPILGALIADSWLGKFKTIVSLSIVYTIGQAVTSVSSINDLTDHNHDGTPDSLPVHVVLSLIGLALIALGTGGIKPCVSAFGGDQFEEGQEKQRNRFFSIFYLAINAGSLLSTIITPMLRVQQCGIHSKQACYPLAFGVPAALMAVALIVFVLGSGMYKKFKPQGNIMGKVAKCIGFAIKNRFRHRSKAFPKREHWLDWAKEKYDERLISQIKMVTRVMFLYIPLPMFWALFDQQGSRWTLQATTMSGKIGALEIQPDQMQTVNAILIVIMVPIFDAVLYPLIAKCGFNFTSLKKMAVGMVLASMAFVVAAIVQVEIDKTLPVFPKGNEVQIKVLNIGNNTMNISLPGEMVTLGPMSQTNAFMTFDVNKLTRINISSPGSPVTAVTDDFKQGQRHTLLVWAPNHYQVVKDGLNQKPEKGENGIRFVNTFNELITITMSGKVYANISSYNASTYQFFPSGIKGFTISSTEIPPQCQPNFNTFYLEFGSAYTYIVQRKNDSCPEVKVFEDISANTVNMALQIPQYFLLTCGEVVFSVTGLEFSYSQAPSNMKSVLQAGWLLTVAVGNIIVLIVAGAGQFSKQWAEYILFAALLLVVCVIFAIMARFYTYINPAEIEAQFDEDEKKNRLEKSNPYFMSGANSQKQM
- PROTOCOL DETAILS: Transport currents (Vmax vs Gly-Sar) in Xenopus oocytes transfected with PEPT1, two-electrode voltage-clamp
- Format: cell-based
- ASSAY CONTEXT: oocytes transfected with PEPT1; drug only
Non-standard residues stand in square brackets, D forms with d. Residues, ends and D or L forms follow the SMILES beside them. Sar = CNCC(=O)O
Some compounds, each annotated with its measured PEPT1 (% Gly-Sar) drug only (Vmax).

{"COMPOUND": "CC1=C(C(=O)O)N2C(=O)[C@@H](NC(=O)[C@H](N)c3ccc(O)cc3)[C@H]2SC1 [Cephadroxil, cefadroxil]", "ASSAY TARGET": "PEPT1 (Homo sapiens)", "PEPT1 (% Gly-Sar) drug only (Vmax)": 18}
{"COMPOUND": "CC1(C)S[C@@H]2[C@H](NC(=O)[C@H](N)c3ccc(O)cc3)C(=O)N2[C@H]1C(=O)O [Amoxacillin, amoxacillin]", "ASSAY TARGET": "PEPT1 (Homo sapiens)", "PEPT1 (% Gly-Sar) drug only (Vmax)": 1.3}
{"COMPOUND": "CC1=C(C(=O)O)N2C(=O)[C@@H](NC(=O)[C@H](N)C3=CCC=CC3)[C@H]2SC1 [Cephradine, cephradine]", "ASSAY TARGET": "PEPT1 (Homo sapiens)", "PEPT1 (% Gly-Sar) drug only (Vmax)": 3.5}
{"COMPOUND": "N[C@@H](C(=O)N[C@@H]1C(=O)N2C(C(=O)O)=C(Cl)CS[C@H]12)c1ccccc1 [Cefaclor, cefaclor]", "ASSAY TARGET": "PEPT1 (Homo sapiens)", "PEPT1 (% Gly-Sar) drug only (Vmax)": 4}
{"COMPOUND": "CN(CC(=O)O)C(=O)CN [Gly-Sar] (H-Gly-[Sar]-OH)", "ASSAY TARGET": "PEPT1 (Homo sapiens)", "PEPT1 (% Gly-Sar) drug only (Vmax)": 100}

----------
- ASSAY TARGET: PEPT2 (Homo sapiens, UniProt Q16348, S640G)
- Construct: The complete open reading frame was cloned into a Xenopus oocyte expression plasmid; expressed in transfected cells; host or cells: Xenopus oocytes injected with cRNA
- Sequence (Q16348 1-729 S640G): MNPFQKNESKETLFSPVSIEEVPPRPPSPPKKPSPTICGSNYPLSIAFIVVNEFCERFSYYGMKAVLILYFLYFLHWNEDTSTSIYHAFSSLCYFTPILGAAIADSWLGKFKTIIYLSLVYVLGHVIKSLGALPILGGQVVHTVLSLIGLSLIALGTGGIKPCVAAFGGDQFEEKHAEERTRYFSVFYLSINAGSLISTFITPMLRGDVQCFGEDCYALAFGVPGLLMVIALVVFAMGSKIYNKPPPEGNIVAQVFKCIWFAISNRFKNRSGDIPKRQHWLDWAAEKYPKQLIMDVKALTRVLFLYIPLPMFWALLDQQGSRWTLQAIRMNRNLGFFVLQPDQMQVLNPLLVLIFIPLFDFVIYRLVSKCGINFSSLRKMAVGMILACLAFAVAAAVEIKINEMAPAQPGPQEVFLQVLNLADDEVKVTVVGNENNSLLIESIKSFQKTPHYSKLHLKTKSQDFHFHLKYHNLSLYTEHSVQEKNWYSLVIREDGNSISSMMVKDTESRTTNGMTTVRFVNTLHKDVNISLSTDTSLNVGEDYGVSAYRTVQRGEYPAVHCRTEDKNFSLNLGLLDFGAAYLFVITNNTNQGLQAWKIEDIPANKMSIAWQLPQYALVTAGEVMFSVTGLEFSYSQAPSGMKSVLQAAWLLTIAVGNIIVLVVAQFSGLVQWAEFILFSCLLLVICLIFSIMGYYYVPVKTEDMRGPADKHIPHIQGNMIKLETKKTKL
- PROTOCOL DETAILS: Transport currents (Vmax vs Gly-Sar) in Xenopus oocytes transfected with PEPT2, two-electrode voltage-clamp
- Format: cell-based
- ASSAY CONTEXT: oocytes transfected with PEPT2; drug only
Non-standard residues stand in square brackets, D forms with d. Residues, ends and D or L forms follow the SMILES beside them. Sar = CNCC(=O)O
Some compounds, each annotated with its measured PEPT2 (% Gly-Sar) drug only (Vmax).
ASSAY METRIC: PEPT2 (% Gly-Sar) drug only (Vmax)

{"COMPOUND": "CC1=C(C(=O)O)N2C(=O)[C@@H](NC(=O)[C@H](N)C3=CCC=CC3)[C@H]2SC1", "ASSAY METRIC": "PEPT2 (% Gly-Sar) drug only (Vmax)", "REPORTED": 159}
{"COMPOUND": "N[C@@H](C(=O)N[C@@H]1C(=O)N2C(C(=O)O)=C(Cl)CS[C@H]12)c1ccccc1", "ASSAY METRIC": "PEPT2 (% Gly-Sar) drug only (Vmax)", "REPORTED": 148}
{"COMPOUND": "CC1=C(C(=O)O)N2C(=O)[C@@H](NC(=O)[C@H](N)c3ccc(O)cc3)[C@H]2SC1", "ASSAY METRIC": "PEPT2 (% Gly-Sar) drug only (Vmax)", "REPORTED": 96}
{"COMPOUND": "CN(CC(=O)O)C(=O)CN [Gly-Sar] (H-Gly-[Sar]-OH)", "ASSAY METRIC": "PEPT2 (% Gly-Sar) drug only (Vmax)", "REPORTED": 100}

----------
- ASSAY TARGET: PEPT2 (Homo sapiens, UniProt Q16348, S640G)
- Construct: The complete open reading frame was cloned into a Xenopus oocyte expression plasmid; expressed in transfected cells; host or cells: Xenopus oocytes injected with cRNA
- Sequence (Q16348 1-729 S640G): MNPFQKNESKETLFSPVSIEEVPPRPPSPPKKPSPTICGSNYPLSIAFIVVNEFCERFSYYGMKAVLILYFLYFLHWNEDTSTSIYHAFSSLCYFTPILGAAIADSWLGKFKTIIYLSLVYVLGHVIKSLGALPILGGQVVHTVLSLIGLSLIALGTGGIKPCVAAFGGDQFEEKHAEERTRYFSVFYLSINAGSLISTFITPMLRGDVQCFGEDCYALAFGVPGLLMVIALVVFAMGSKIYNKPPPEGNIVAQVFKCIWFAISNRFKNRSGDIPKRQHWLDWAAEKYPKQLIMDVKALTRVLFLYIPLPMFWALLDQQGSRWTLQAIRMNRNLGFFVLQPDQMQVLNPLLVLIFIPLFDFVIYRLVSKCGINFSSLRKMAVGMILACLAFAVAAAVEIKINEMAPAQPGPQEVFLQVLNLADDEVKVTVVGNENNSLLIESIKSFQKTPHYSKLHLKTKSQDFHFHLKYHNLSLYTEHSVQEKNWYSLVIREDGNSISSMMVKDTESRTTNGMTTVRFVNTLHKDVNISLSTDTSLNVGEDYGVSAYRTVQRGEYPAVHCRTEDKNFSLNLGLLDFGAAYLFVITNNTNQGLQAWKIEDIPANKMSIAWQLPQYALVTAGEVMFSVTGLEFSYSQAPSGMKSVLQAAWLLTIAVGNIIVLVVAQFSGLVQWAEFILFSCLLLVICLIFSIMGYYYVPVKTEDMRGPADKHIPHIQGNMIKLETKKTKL
- PROTOCOL DETAILS: Transport currents (Vmax vs Gly-Sar) in Xenopus oocytes transfected with PEPT2, two-electrode voltage-clamp
- Format: cell-based
- ASSAY CONTEXT: oocytes transfected with PEPT2; in the presence of inhibitor XP10973
Non-standard residues stand in square brackets, D forms with d. Residues, ends and D or L forms follow the SMILES beside them. Sar = CNCC(=O)O
Some compounds, each annotated with its measured PEPT2 (% Gly-Sar) +XP10973 (Vmax).

{"COMPOUND": "CN(CC(=O)O)C(=O)CN [Gly-Sar] (H-Gly-[Sar]-OH)", "ASSAY TARGET": "PEPT2 (Homo sapiens, UniProt Q16348, S640G)", "PEPT2 (% Gly-Sar) +XP10973 (Vmax)": "12 % Gly-Sar"}
{"COMPOUND": "CC1=C(C(=O)O)N2C(=O)[C@@H](NC(=O)[C@H](N)c3ccc(O)cc3)[C@H]2SC1 [Cephadroxil, cefadroxil]", "ASSAY TARGET": "PEPT2 (Homo sapiens, UniProt Q16348, S640G)", "PEPT2 (% Gly-Sar) +XP10973 (Vmax)": "27 % Gly-Sar"}
{"COMPOUND": "CC1=C(C(=O)O)N2C(=O)[C@@H](NC(=O)[C@H](N)C3=CCC=CC3)[C@H]2SC1 [Cephradine, cephradine]", "ASSAY TARGET": "PEPT2 (Homo sapiens, UniProt Q16348, S640G)", "PEPT2 (% Gly-Sar) +XP10973 (Vmax)": "37 % Gly-Sar"}
{"COMPOUND": "N[C@@H](C(=O)N[C@@H]1C(=O)N2C(C(=O)O)=C(Cl)CS[C@H]12)c1ccccc1 [Cefaclor, cefaclor]", "ASSAY TARGET": "PEPT2 (Homo sapiens, UniProt Q16348, S640G)", "PEPT2 (% Gly-Sar) +XP10973 (Vmax)": "22 % Gly-Sar"}
